Read-out: Monocyte Chemoattractant Protein-1 (MCP1), CCL2 (gene 6347)
Assay summary: BSK_LPS_MCP1: BioMAP Diversity Plus: LPS Assay for Monocyte Chemoattractant Protein-1 (MCP1) Biomarker Activity (AID 2283081)
Conditions used: primary human HUVEC with PBMC; actives raise or lower the signal
Active and inactive are the calls of the source. Rule for the calls: active = hit-call score of the fitted dose curve at least 0.9, where 1 is the maximum; inactive = score below 0.9.
Bench note: report the call from active, inactive

-- ask Which outcome was assigned to NC(=O)c1c(Cl)cccc1Cl in this test?
-- reply inactive

-- ask Which outcome was assigned to CC(C)Cc1ccc(C(C)C(=O)O)cc1 (centres undefined) in this test?
-- reply inactive

-- ask Which outcome was assigned to CC1=CC(C)C(C=O)C(C)C1 (centres undefined) (tested in a mixture with another compound) in this test?
-- reply inactive

-- ask Which outcome was assigned to C=C1CC/C=C(\C)CC[C@@H]2[C@@H]1CC2(C)C in this test?
-- reply inactive

-- ask Which outcome was assigned to CCOC(=O)C=Cc1ccccc1 in this test?
-- reply inactive

-- ask Which outcome was assigned to CC(=O)CCC=C(C)CCC=C(C)C in this test?
-- reply inactive

-- ask Which outcome was assigned to CCCCCCCCCCCCS in this test?
-- reply active

-- ask Which outcome was assigned to CCn1cc(C(=O)O)c(=O)c2ccc(C)nc21 in this test?
-- reply inactive

-- ask Which outcome was assigned to C=CC(=O)OCC(CO)(COC(=O)C=C)COC(=O)C=C in this test?
-- reply active

-- ask Which outcome was assigned to O=S(=O)(O)C(F)(F)C(F)(F)OC(F)(F)C(F)(F)F in this test?
-- reply inactive

-- ask Which outcome was assigned to C=C(C)C(=O)OCCC(F)(F)C(F)(F)C(F)(F)C(F)(F)C(F)(F)C(F)(F)C(F)(F)C(F)(F)F in this test?
-- reply inactive

-- ask Which outcome was assigned to C#C[C@]1(O)CC[C@H]2[C@@H]3CCc4cc(O)ccc4[C@H]3CC[C@@]21C in this test?
-- reply active

-- ask Which outcome was assigned to OCCN1CCOCC1 in this test?
-- reply inactive

-- ask Which outcome was assigned to CCCCCCCC1CCCC1=O (centres undefined) in this test?
-- reply inactive

-- ask Which outcome was assigned to C[C@]12CC[C@@H]3c4ccc(O)cc4CC[C@H]3[C@@H]1CC[C@@H]2O in this test?
-- reply inactive

-- ask Which outcome was assigned to CCCCOCCOCCO in this test?
-- reply inactive

-- ask Which outcome was assigned to COC(=O)c1ccc(C(=O)OC)cc1 in this test?
-- reply inactive

-- ask Which outcome was assigned to O=C(O)C(F)(F)OC(F)(F)C(F)(F)OC(F)(F)C(F)(F)C(F)(F)C(F)(F)F in this test?
-- reply inactive

-- ask Which outcome was assigned to COc1ccccc1NC(=O)CC(C)=O in this test?
-- reply inactive

-- ask Which outcome was assigned to CCC(=O)OCC=Cc1ccccc1 in this test?
-- reply inactive

-- ask Which outcome was assigned to CC(=O)OC(C)(C)C1CC=C(C)CC1 (centres undefined) in this test?
-- reply inactive

-- ask Which outcome was assigned to OCC(F)(OC(F)(F)C(F)(OC(F)(F)C(F)(F)C(F)(F)F)C(F)(F)F)C(F)(F)F (centres undefined) in this test?
-- reply inactive

-- ask Which outcome was assigned to C=C(C)C(N)=O in this test?
-- reply inactive

-- ask Which outcome was assigned to CC1(C)[C@H](C=C(Cl)Cl)[C@H]1C(=O)OCc1cccc(Oc2ccccc2)c1 in this test?
-- reply inactive

-- ask Which outcome was assigned to CC=CC(=O)C1=C(C)C=CCC1(C)C in this test?
-- reply inactive

-- ask Which outcome was assigned to CCCCN(CCO)CCO in this test?
-- reply inactive

-- ask Which outcome was assigned to O=C(c1ccc(OCCN2CCCCC2)cc1)c1c(-c2ccc(O)cc2)sc2cc(O)ccc12 in this test?
-- reply active

-- ask Which outcome was assigned to CC(=O)c1ccc(C)cc1 in this test?
-- reply inactive

-- ask Which outcome was assigned to Nc1ccc(N)c([N+](=O)[O-])c1 in this test?
-- reply inactive
